log10 Kd values by entry
# system.under.test: T1, LRP1 CR3-5 (human)
# T1 construct: range 852-973; also called L1 CR3-5
# experiment.description: solid-phase assay on coated CR protein, single-site non-linear fit
Record value = log10 of Kd given in µM.

Reference set, count: 3
MegaRAP1 d3 revertant E270K (ligand, MegaRAP1 d3 with position 270 reverted to wild type; also called MegaRAP1 d3 E270K; E270K revertant; not shown: N-terminal hexahistidine and S-peptide tags of pET30(+)a) LDRLRRVSHQGYTTEAKFEEPRVIDLWDLAQSANLTDKELEAFREELKYFKAKIEAHNHYQKQLEIAHEKLRHAESVGDGERVSRSREKHALLEGRTKELGYTVKKHLQDLSGRISRAR; -0.94
RAP d3 forward mutant E217K (ligand, The paragraph gives only the position; the change E217K follows from the mutagenic primers and the MegaRAP1 mutation set; also called single-site RAP d3 mutant at 217; not shown: N-terminal hexahistidine and S-peptide tags of pET30(+)a) LDRLRRVSHQGYSTEAKFEEPRVIDLWDLAQSANLTDKELEAFREELKHFEAKIEKHNHYQKQLEIAHEKLRHAESVGDGERVSRSREKHALLEGRTKELGYTVKKHLQDLSGRISRAR; -2.05
RAP d3 forward mutant E251K (ligand, The paragraph gives only the position; the change E251K follows from the mutagenic primers; not shown: N-terminal hexahistidine and S-peptide tags of pET30(+)a) LDRLRRVSHQGYSTEAEFEEPRVIDLWDLAQSANLTDKELEAFREELKHFKAKIEKHNHYQKQLEIAHEKLRHAESVGDGERVSRSREKHALLEGRTKELGYTVKKHLQDLSGRISRAR; -2.15

Query block: # lookup: log10 Kd of MegaRAP1 d3 double revertant A256K, E270K (ligand, not shown: N-terminal hexahistidine and S-peptide tags of pET30(+)a) LDRLRRVSHQGYTTEAKFEEPRVIDLWDLAQSANLTDKELEAFREELKYFKAKIEKHNHYQKQLEIAHEKLRHAESVGDGERVSRSREKHALLEGRTKELGYTVKKHLQDLSGRISRAR
Result block: -2.40

Query block: Now the same for RAP d3 forward mutant H249Y (ligand, The paragraph gives only the position; the change H249Y follows from the mutagenic primers; also called single-site RAP d3 mutant at 249; not shown: N-terminal hexahistidine and S-peptide tags of pET30(+)a) LDRLRRVSHQGYSTEAEFEEPRVIDLWDLAQSANLTDKELEAFREELKYFEAKIEKHNHYQKQLEIAHEKLRHAESVGDGERVSRSREKHALLEGRTKELGYTVKKHLQDLSGRISRAR
Result block: -1.55

Query block: Subsequent entry: RAP d3 (wild-type domain 3 of human RAP, amino acids 201-319 of mature RAP) (ligand, Expressed in E. coli from pET30(+)a, Ni-NTA purified; also called wild-type RAP d3; recombinant RAP d3; not shown: N-terminal hexahistidine and S-peptide tags of pET30(+)a) LDRLRRVSHQGYSTEAEFEEPRVIDLWDLEQSANLTDKELEAFREELKHFEAKIEKHNHYQKQLEIAHEKLRHAESVGDGERVSRSREKHALLEGRTKELGYTVKKHLQDLSGRISRAR
Result block: -1.80

Reference source: patent US20100210517A1
